The following compounds are shown together with reported pEC50 values.
Test system: Vaccinia virus
Assay: Antiviral activity against Vaccinia virus infected in HEL cells assessed as inhibition of virus-induced cytopathic effect
Type: functional, organism-based
Conditions: Orthopoxvirus vaccinia
Hey, just a heads up that pEC50 is the negative log base 10 of the concentration in molar.

INSERT INTO results (record_smiles, assay_value) VALUES
  ('CC(=O)N[C@H]1[C@H](O[C@@H]2c3ccc(c(Cl)c3)Oc3cc4cc(c3O)Oc3ccc(cc3Cl)C[C@H]3NC(=O)[C@H](n5cc6ccccc6c5Sc5nc6ccccc6s5)c5ccc(O)c(c5)Oc5cc(O)cc(c5)[C@H](NC3=O)C(=O)N[C@H]4C(=O)N[C@H]3C(=O)N[C@@H]2C(=O)N[C@H](C(=O)O)c2cc(O)cc(O)c2-c2cc3ccc2O)O[C@H](CO)[C@@H](O)[C@@H]1O', 4.33),
  ('CC(=O)N[C@@H]1[C@@H](O)[C@H](O)[C@@H](CO)O[C@H]1Sc1c2ccccc2cn1[C@H]1C(=O)N[C@@H]2Cc3ccc(c(Cl)c3)Oc3cc4cc(c3O)Oc3ccc(cc3Cl)[C@@H](O[C@@H]3O[C@H](CO)[C@@H](O)[C@H](O)[C@H]3NC(C)=O)[C@@H]3NC(=O)[C@H](NC(=O)[C@@H]4NC(=O)[C@@H](NC2=O)c2cc(O)cc(c2)Oc2cc1ccc2O)c1ccc(O)c(c1)-c1c(O)cc(O)cc1[C@@H](C(=O)O)NC3=O', 4.33),
  ('Nc1ccn(C[C@@H](CO)OCP(=O)(O)O)c(=O)n1', 4.68);

pEC50 reported for this compound CC(=O)N[C@H]1[C@H](O[C@@H]2c3ccc(c(Cl)c3)Oc3cc4cc(c3O)Oc3ccc(cc3Cl)C[C@H]3NC(=O)[C@H](n5cc6ccccc6c5S[C@@H]5O[C@H](COC(C)=O)[C@@H](OC(C)=O)[C@H](OC(C)=O)[C@H]5OC(C)=O)c5ccc(O)c(c5)Oc5cc(O)cc(c5)[C@H](NC3=O)C(=O)N[C@H]4C(=O)N[C@H]3C(=O)N[C@@H]2C(=O)N[C@H](C(=O)O)c2cc(O)cc(O)c2-c2cc3ccc2O)O[C@H](CO)[C@@H](O)[C@@H]1O : 4.35

pEC50 reported for this compound O=c1[nH]c(=O)n([C@H]2C[C@H](O)[C@@H](CO)O2)cc1/C=C/Br : 5.00

pEC50 reported for this compound CC(=O)N[C@@H]1[C@@H](OC(C)=O)[C@H](OC(C)=O)[C@@H](COC(C)=O)O[C@H]1Sc1c2ccccc2cn1[C@H]1C(=O)N[C@@H]2Cc3ccc(c(Cl)c3)Oc3cc4cc(c3O)Oc3ccc(cc3Cl)[C@@H](O[C@@H]3O[C@H](CO)[C@@H](O)[C@H](O)[C@H]3NC(C)=O)[C@@H]3NC(=O)[C@H](NC(=O)[C@@H]4NC(=O)[C@@H](NC2=O)c2cc(O)cc(c2)Oc2cc1ccc2O)c1ccc(O)c(c1)-c1c(O)cc(O)cc1[C@@H](C(=O)O)NC3=O : 4.35

pEC50 reported for this compound CC(=O)N[C@H]1[C@H](O[C@@H]2c3ccc(c(Cl)c3)Oc3cc4cc(c3O)Oc3ccc(cc3Cl)C[C@H]3NC(=O)[C@H](n5cc6ccccc6c5S[C@@H]5O[C@H](CO)[C@@H](O)[C@H](O)[C@H]5O)c5ccc(O)c(c5)Oc5cc(O)cc(c5)[C@H](NC3=O)C(=O)N[C@H]4C(=O)N[C@H]3C(=O)N[C@@H]2C(=O)N[C@H](C(=O)O)c2cc(O)cc(O)c2-c2cc3ccc2O)O[C@H](CO)[C@@H](O)[C@@H]1O : 4.35

pEC50 reported for this compound CC(=O)N[C@H]1[C@H](O[C@@H]2c3ccc(c(Cl)c3)Oc3cc4cc(c3O)Oc3ccc(cc3Cl)C[C@H]3NC(=O)[C@H](n5cc6cc7ccccc7cc6c5Sc5ncccn5)c5ccc(O)c(c5)Oc5cc(O)cc(c5)[C@H](NC3=O)C(=O)N[C@H]4C(=O)N[C@H]3C(=O)N[C@@H]2C(=O)N[C@H](C(=O)O)c2cc(O)cc(O)c2-c2cc3ccc2O)O[C@H](CO)[C@@H](O)[C@@H]1O : 5.00
